Protocol Notes: Stability in mouse plasma
Type: in vitro ADME
Run Parameters: mouse plasma; 1 h, 37° C.
So basically, if % Remaining comes in under 70% it's yes (1), and if it's 70% or more it's no (0).

# input Report whether reported % Remaining is lower than 70% (strictly) for CCc1c2c(nc3ccc(O)cc13)-c1cc3c(c(=O)n1C2)COC(=O)[C@@]3(CC)OC(=O)N1CCC(CCn2ccc3cc(-n4c(O)nnc4-c4cc(C(C)C)c(O)cc4O)ccc32)CC1 [SDC-TRAP-0064]
# output no (0)

# input Cool, now CCc1c2c(nc3ccc(OC(=O)N4CCN(Cc5ccc(-n6c(O)nnc6-c6cc(C(C)C)c(O)cc6O)cc5)CC4)cc13)-c1cc3c(c(=O)n1C2)COC(=O)C3(O)CC (stereo not shown) [SDC-TRAP-0046]
# output yes (1)

# input Cool, now CCNC(=O)c1nnc(-c2cc(C(C)C)c(O)cc2O)n1-c1ccc(OC2CCN(C(=O)C3CCN(C(=O)Oc4ccc5nc6c(c(CC)c5c4)Cn4c-6cc5c(c4=O)COC(=O)[C@]5(O)CC)C(C)C3)CC2)cc1 (stereo partly shown) [SDC-TRAP-0213]
# output no (0)

# input Cool, now CCc1c2c(nc3ccc(OC(=O)N(C)CCn4ccc5cc(-n6c(O)nnc6-c6cc(C(C)C)c(O)cc6O)ccc54)cc13)-c1cc3c(c(=O)n1C2)COC(=O)C3(O)CC (stereo not shown) [SDC-TRAP-0022]
# output yes (1)

# input Cool, now CCc1c2c(nc3ccc(O)cc13)-c1cc3c(c(=O)n1C2)COC(=O)C3(CC)OC(=O)CCC(=O)N1CCC(Cc2ccc(-n3c(O)nnc3-c3cc(C(C)C)c(O)cc3O)cc2)CC1 (stereo not shown) [SDC-TRAP-0042]
# output no (0)

# input Cool, now CCc1c2c(nc3ccc(OC(=O)N(C)CCOCCn4ccc5cc(-n6c(O)nnc6-c6cc(C(C)C)c(O)cc6O)ccc54)cc13)-c1cc3c(c(=O)n1C2)COC(=O)C3(O)CC (stereo not shown) [SDC-TRAP-0029]
# output yes (1)

# input Cool, now CCNC(=O)c1nnc(-c2cc(C(C)C)c(O)cc2O)n1-c1ccc(Oc2ccc(N(C)C(=O)Oc3ccc4nc5c(c(CC)c4c3)Cn3c-5cc4c(c3=O)COC(=O)[C@]4(O)CC)cc2)cc1 [SDC-TRAP-0145]
# output yes (1)

# input Cool, now CCNC(=O)c1nnc(-c2cc(C(C)C)c(O)cc2O)n1-c1ccc(OC2CCN(C(=O)[C@@H]3CCCN3C(=O)Oc3ccc4nc5c(c(CC)c4c3)Cn3c-5cc4c(c3=O)COC(=O)[C@]4(O)CC)CC2)cc1 [SDC-TRAP-0209]
# output yes (1)

# input Cool, now CCc1c2c(nc3ccc(O)cc13)-c1cc3c(c(=O)n1C2)COC(=O)C3(CC)OC(=O)CN1CCN(c2ccc(-n3c(O)nnc3-c3cc(C(C)C)c(O)cc3O)cc2)CC1 (stereo not shown) [SDC-TRAP-0056]
# output no (0)

# input Cool, now CCc1c2c(nc3ccc(OC(=O)N4CCCCC4C(=O)N4CCC(CCn5ccc6cc(-n7c(O)nnc7-c7cc(C(C)C)c(O)cc7O)ccc65)CC4)cc13)-c1cc3c(c(=O)n1C2)COC(=O)[C@]3(O)CC (stereo partly shown) [SDC-TRAP-0215]
# output no (0)
